Target: Secreted frizzled-related protein 1 (Homo sapiens) (UniProt Q8N474)
Sequence (Q8N474 whole entry): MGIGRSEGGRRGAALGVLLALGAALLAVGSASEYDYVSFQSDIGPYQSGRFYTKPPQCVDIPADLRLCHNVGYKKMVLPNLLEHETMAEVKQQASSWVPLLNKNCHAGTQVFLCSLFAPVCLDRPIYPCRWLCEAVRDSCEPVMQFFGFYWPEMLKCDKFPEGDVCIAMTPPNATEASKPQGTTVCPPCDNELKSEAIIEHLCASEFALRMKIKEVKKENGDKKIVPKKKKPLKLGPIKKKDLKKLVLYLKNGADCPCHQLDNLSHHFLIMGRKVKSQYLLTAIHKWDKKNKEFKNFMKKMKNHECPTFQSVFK
Experiment: Inhibition of human SFRP1 transfected in human U20S cells at 15 uM by TCF-luciferase reporter gene assay relative to control
Type: cell-based
Details: U2OS
measuredEndpoint: fold change (FC)
API doc: respond with a numeric literal and nothing else, no unit.

See these solved cases before continuing.
- molecule: "CCOC(=O)c1c(NC(=O)CC2SC(=N)NC2=O)sc(Br)c1CNc1ccccc1 (stereo not drawn)"
  systemTested: "Secreted frizzled-related protein 1 (Homo sapiens) (UniProt Q8N474)"
  fold change (FC): 2.5
- molecule: "CCOC(=O)c1c(NC(=O)CC2SC(=N)NC2=O)sc(-c2ccccc2)c1C (stereo not drawn)"
  systemTested: "Secreted frizzled-related protein 1 (Homo sapiens) (UniProt Q8N474)"
  fold change (FC): 0.8

Exam item: For the molecule N#Cc1c(NC(=O)CC2SC(=N)NC2=O)sc2c1CCCC2 (stereo not drawn) , what fold change (FC) is on record?
Marked response: 1.2
